Data credit: patent US20250376459A1

- measurementDescription: solubility in SGF, FeSSIF, FaSSIF and water
- Format: physicochemical
- conditionDetails: FaSSIF; read-out: solubility in FaSSIF

molecule | solubility
[2H]C([2H])([2H])CC(=O)c1cnc(NC(=O)C2CC2)cc1Nc1cccc(-c2ncn(C([2H])([2H])[2H])n2)c1OC [Form 1-1] | 1 to 2 µg/mL

###

- measurementDescription: solubility in SGF, FeSSIF, FaSSIF and water
- Format: physicochemical
- conditionDetails: SGF, simulated gastric fluid; read-out: solubility in SGF

molecule | solubility
[2H]C([2H])([2H])CC(=O)c1cnc(NC(=O)C2CC2)cc1Nc1cccc(-c2ncn(C([2H])([2H])[2H])n2)c1OC [Form 1-1] | > 4100 µg/mL
